The measurements presented in this section are drawn from patent US10703764B2.

- SYSTEM_NAME: BRD4 BD1 (Homo sapiens)
- TEST_DESCRIPTION: AlphaScreen binding assay, BRD4 Bromodomain 1
RECORDED_ENDPOINT: IC50

Look over these answered cases.
COMPOUND | RESULT
CC(=O)N1c2ccc(-c3cnn(CCn4cncn4)c3)cc2N(C(=O)OC(C)C)C[C@@H]1C | 100 to 1000 nM
COC(=O)N1c2ccc(-c3cnn(C4CCNCC4)c3)cc2N(C(=O)Oc2ccc(F)cc2)C[C@@H]1C | 100 to 1000 nM

stdin: What value of measured IC50 is listed for CC(=O)N1c2ccccc2N(C(=O)c2ccc(-n3cccn3)cc2)C[C@@H]1C ?
stdout: > 10000 nM

stdin: Please report the recorded IC50 for CC(=O)N1c2ccc(-c3nnc(C)s3)cc2N(C(=O)c2ccco2)C[C@@H]1C .
stdout: 1000 to 10000 nM

stdin: For the compound COC(=O)N1c2ccc(-c3cnn(C4CCOCC4)c3)cc2N(C(=O)OC(C)C)C[C@@H]1C , what IC50 is on record?
stdout: 100 to 1000 nM

stdin: Please report the recorded IC50 for CC(=O)N1c2ccc(-c3ccc(S(C)(=O)=O)cc3)cc2N(C(=O)c2cc3cccnc3[nH]2)CC1C (stereo not shown) .
stdout: 100 to 1000 nM

stdin: May I ask what IC50 has been recorded for CC(=O)N1c2ccc(-c3cnn(Cc4cc(C)no4)c3)cc2N(C(=O)C2CC2)C[C@@H]1C ?
stdout: 100 to 1000 nM

---

- SYSTEM_NAME: BRD4 BD2 (Homo sapiens)
- Construct: made in house
- TEST_DESCRIPTION: AlphaScreen binding assay, BRD4 Bromodomain 2
RECORDED_ENDPOINT: IC50

SMILES | IC50
CCS(=O)(=O)Nc1ccc(-c2ccc3c(c2)N(C(=O)C2CCC2)C[C@H](C)N3C(C)=O)cc1 | 50 to 500 nM
CC(=O)N1c2ccc(-c3cnn(C4CC4)c3)cc2N(C(=O)Oc2ccc(F)cc2)C[C@@H]1C | < 50 nM
CC(=O)N1c2ccc(-c3cnn(C4CC4)c3)cc2N(C(=O)Oc2ccc(Cl)c3cccnc23)C[C@@H]1C | 50 to 500 nM

stdin: Using the record for CCOC(=O)N1C[C@H](C)N(C(C)=O)c2ccc(-c3ccc(S(=O)(=O)NC)cc3)cc21 , report its IC50.
stdout: 50 to 500 nM

---

- SYSTEM_NAME: BRD4 BD1 (Homo sapiens, UniProt O60885)
- TEST_DESCRIPTION: AlphaScreen binding assay, BRD4 Bromodomain 1
pIC50: −log10 of the molar value.
RECORDED_ENDPOINT: pIC50

MOLECULE | SYSTEM_NAME | pIC50
CC(=O)N1c2cc(F)c(-c3cnn(C4CC4)c3)cc2N(C(=O)OC(C)C)C[C@@H]1C [Example I-207] | BRD4 BD1 (Homo sapiens, UniProt O60885) | 6.00 to 7.00

Turning to the following molecule.
stdin: Name the recorded pIC50 for CC(=O)N1c2ccc(-c3ccc(OCCN(C)C)cc3)cc2N(C(=O)c2ccco2)C[C@@H]1C [Example I-276] .
stdout: 5.00 to 6.00

---

Reported IC50 values are given for each entry in this list.
- SYSTEM_NAME: BRD4 BD2 (Homo sapiens, UniProt O60885)
- TEST_DESCRIPTION: AlphaScreen binding assay, BRD4 Bromodomain 2

SMILES | RECORDED_ENDPOINT | RESULT
CC(=O)N1c2ccc(-c3ccc(S(=O)(=O)NC(C)(C)C)cc3)cc2N(C(=O)OC(C)C)C[C@@H]1C | IC50 | 50 to 500 nM

stdin: Requested field: IC50. Item: COC(=O)N1c2ccc(-c3cnn(C(C)(C)CO)c3)cc2N(C(=O)Oc2cccnc2)C[C@@H]1C
stdout: 50 to 500 nM

stdin: Please report the recorded IC50 for CC(=O)N1c2ccccc2N(C(=O)COc2cccc3ccccc23)C[C@@H]1C .
stdout: > 500 nM

stdin: Would you kindly share the measured IC50 for CC(=O)N1c2ccc(-c3cnn(C4CC4)c3)cc2N(C(=O)Oc2cccc3cccnc23)C[C@@H]1C ?
stdout: < 50 nM

---

- SYSTEM_NAME: BRD4 BD2 (Homo sapiens, UniProt O60885)
- TEST_DESCRIPTION: AlphaScreen binding assay, BRD4 Bromodomain 2
- Protocol: The binding of Example compounds to BRD4 Bromodomain 1 and BRD4 Bromodomain 2 was assessed using 384-well AlphaScreen assay technology. His-epitope tagged BRD4 BD144-168 and BRD4 BD2333-460 were cloned, expressed, and purified to homogeneity. BRD4 BD1 and BRD4 BD2 binding and inhibition was assessed by monitoring the engagement of biotinylated Histone H4 (1-21) K5/8/12/16 tetra-acetylated peptide with the targets using the AlphaScreen technology (PerkinElmer). […]
pIC50: −log10 of the molar value.
Item-by-item account of pIC50

Worked examples, 5 compounds total:
SMILES | RESULT
CC(C)C(=O)N1c2ccc(-c3ccc(S(C)(=O)=O)cc3)cc2N(C(=O)c2ccco2)C[C@@H]1C | < 6.30
CC(=O)N1c2ccc(-c3ccc(CS(N)(=O)=O)cc3)cc2N(C(=O)C2CC2)C[C@@H]1C | 6.30 to 7.30
CC(=O)N1c2ccc(-c3cn(C)nn3)cc2N(C(=O)C2CC2)C[C@@H]1C | 6.30 to 7.30
CC(=O)N1c2ncc(-c3ccc(S(C)(=O)=O)cc3)cc2N(C(=O)c2ccco2)C[C@@H]1C | 6.30 to 7.30
CC(=O)N[C@H]1CCN(C(=O)c2ccc(-c3ccc4c(c3)N(C(=O)OC(C)C)C[C@H](C)N4C(=O)C3CC3)cc2)C1 | 6.30 to 7.30

stdin: Report pIC50 for COc1cc(C)ccc1OC(=O)N1C[C@H](C)N(C(C)=O)c2ccc(-c3cnn(C4CC4)c3)cc21 please.
stdout: 6.30 to 7.30

stdin: pIC50 lookup needed for CC(=O)N1c2ccc(-c3cnn(C4CC4)c3)cc2N(C(=O)Oc2ccc3c(c2)ncn3C)C[C@@H]1C , thanks.
stdout: > 7.30

---

- SYSTEM_NAME: BRD4 BD2 (Homo sapiens)
- TEST_DESCRIPTION: AlphaScreen binding assay, BRD4 Bromodomain 2
- Method: The binding of Example compounds to BRD4 Bromodomain 1 and BRD4 Bromodomain 2 was assessed using 384-well AlphaScreen assay technology. His-epitope tagged BRD4 BD144-168 and BRD4 BD2333-460 were cloned, expressed, and purified to homogeneity. BRD4 BD1 and BRD4 BD2 binding and inhibition was assessed by monitoring the engagement of biotinylated Histone H4 (1-21) K5/8/12/16 tetra-acetylated peptide with the targets using the AlphaScreen technology (PerkinElmer). […]
pIC50: −log10 of the molar value.
RECORDED_ENDPOINT: pIC50

MOLECULE | pIC50
C[C@H]1CN(C(=O)c2ccco2)c2cc(-c3ccc(S(C)(=O)=O)cc3)ccc2N1C(=O)C1CCC1 [Example I-374] | < 6.30
CC(=O)N1c2ccc(-c3cnn(C4COC4)c3)cc2N(C(=O)C2CCC2)C[C@@H]1C [Example I-11] | 6.30 to 7.30
CC(C)OC(=O)N1C[C@H](C)N(C(=O)C2CC2)c2ccc(-c3cnn(C4COC4)c3)cc21 [Example I-317] | 6.30 to 7.30
CC(C)OC(=O)N1C[C@H](C)N(C(=O)C2CC2)c2ccc(-c3cnn(CC4CCC4)c3)cc21 [Example I-618] | < 6.30

stdin: Give its pIC50 value. Item: CC(=O)N1c2ccc(-c3cccc(S(C)(=O)=O)c3)cc2N(C(=O)C2CCC2)C[C@@H]1C [Example I-1051]
stdout: 6.30 to 7.30

stdin: For the molecule CC(=O)N1c2ccc(-c3cccc(S(=O)(=O)C4CC4)c3)cc2N(C(=O)C2CCC2)C[C@@H]1C [Example I-1087] , what pIC50 is on record?
stdout: 6.30 to 7.30

stdin: Please report the recorded pIC50 for C[C@H]1CN(C(=O)C2CC2)c2cc(-c3ccc(S(=O)(=O)CCN)cc3)ccc2N1C(=O)C1CC1 [Example I-448] .
stdout: > 7.30

stdin: # get_value(readout='pIC50', item= COc1cscc1C(=O)N1C[C@H](C)N(C(C)=O)c2ccccc21 [Example I-747] )
stdout: < 6.30

stdin: Suppose we examine the molecule CCOC(=O)N1C[C@H](C)N(C(C)=O)c2ccc(-c3ccc(OC)c(N4CCCS4(=O)=O)c3)cc21 [Example I-1169] ; what pIC50 value has been reported?
stdout: 6.30 to 7.30

stdin: Need pIC50 of COC(=O)N1c2ccc(-c3cnn(CCO)c3)cc2N(C(=O)Oc2ccc(F)cc2)C[C@@H]1C [Example I-1022] , thanks.
stdout: 6.30 to 7.30

stdin: Recorded pIC50 for CC(=O)N1c2ccc(-c3cnn(C(C)(C)C)c3)cc2N(C(=O)OC(C)C)C[C@@H]1C [Example I-330] , please?
stdout: 6.30 to 7.30

stdin: Query (molecule): CC(C)OC(=O)N1C[C@H](C)N(C(=O)C2CC2)c2ccc(-c3cnn(CC(N)=O)c3)cc21 [Example I-310] ; field requested: pIC50
stdout: 6.30 to 7.30

stdin: Tell me the measured pIC50 of CC(=O)N1c2ccc(-c3cnn(CC(N)=O)c3)cc2N(C(=O)C2CC2)C[C@@H]1C [Example I-655] , please.
stdout: 6.30 to 7.30

stdin: Dear colleague, I am looking for the recorded pIC50 of the following molecule: CC(C)OC(=O)N1C[C@H](C)N(C(=O)C2CC2)c2ccc(-c3ccc(N4CCCS4(=O)=O)cc3)cc21 [Example I-470]
stdout: < 6.30

stdin: So what's the measured pIC50 for this one? CNC(=O)c1ccc(-c2ccc3c(c2)N(C(=O)c2ccco2)C[C@H](C)N3C(C)=O)cn1 [Example I-836]
stdout: > 7.30
